Data credit: the MegaScale stability set (Tsuboyama et al. 2023)

As shown below, each of these variants has a reported folding stability dG value.
B1: EEHEE_rd4_0469 (parent)
chain: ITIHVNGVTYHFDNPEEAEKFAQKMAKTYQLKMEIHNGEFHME

Variants of: B1
Assay: folding stability dG (cDNA display proteolysis); higher = more stable
Settings: PBS, room temperature

- Mutation descriptor: "F40M"
  folding stability dG: "1.23 kcal/mol"
- Mutation descriptor: "M25S"
  folding stability dG: "0.059 kcal/mol"
- Mutation descriptor: "V5K"
  folding stability dG: "0.112 kcal/mol"
- Mutation descriptor: "M42Y"
  folding stability dG: "1.02 kcal/mol"
- Mutation descriptor: "Q23L"
  folding stability dG: "1.25 kcal/mol"
- Mutation descriptor: "E43V"
  folding stability dG: "2.36 kcal/mol"
- Mutation descriptor: "E34L"
  folding stability dG: "1.26 kcal/mol"
- Mutation descriptor: "E43R"
  folding stability dG: "1.56 kcal/mol"
- Mutation descriptor: "E43S"
  folding stability dG: "1.34 kcal/mol"
- Mutation descriptor: "Q30Y"
  folding stability dG: "1.14 kcal/mol"
- Mutation descriptor: "K27F"
  folding stability dG: "1.25 kcal/mol"
- Mutation descriptor: "K32W"
  folding stability dG: "1.54 kcal/mol"
- Mutation descriptor: "E16A"
  folding stability dG: "1.12 kcal/mol"
- Mutation descriptor: "E43Y"
  folding stability dG: "1.94 kcal/mol"
- Mutation descriptor: "T28N"
  folding stability dG: "1.24 kcal/mol"
- Mutation descriptor: "T9V"
  folding stability dG: "1.25 kcal/mol"
- Mutation descriptor: "E16N"
  folding stability dG: "1.03 kcal/mol"
- Mutation descriptor: "H4Q"
  folding stability dG: "0.774 kcal/mol"
- Mutation descriptor: "E39F"
  folding stability dG: "0.886 kcal/mol"
- Mutation descriptor: "M25I"
  folding stability dG: "0.968 kcal/mol"
- Mutation descriptor: "M42P"
  folding stability dG: "0.756 kcal/mol"
- Mutation descriptor: "A18Q"
  folding stability dG: "0.282 kcal/mol"
